- experimental target: T1, soluble human GPNMB (recombinant extracellular domain) (human, UniProt Q14956 23-498)
- T1 construct: also called huGPNMB; recombinant human GPNMB extracellular domain; not shown: C-terminal polyhistidine or Avi-His tag
- T1 sequence: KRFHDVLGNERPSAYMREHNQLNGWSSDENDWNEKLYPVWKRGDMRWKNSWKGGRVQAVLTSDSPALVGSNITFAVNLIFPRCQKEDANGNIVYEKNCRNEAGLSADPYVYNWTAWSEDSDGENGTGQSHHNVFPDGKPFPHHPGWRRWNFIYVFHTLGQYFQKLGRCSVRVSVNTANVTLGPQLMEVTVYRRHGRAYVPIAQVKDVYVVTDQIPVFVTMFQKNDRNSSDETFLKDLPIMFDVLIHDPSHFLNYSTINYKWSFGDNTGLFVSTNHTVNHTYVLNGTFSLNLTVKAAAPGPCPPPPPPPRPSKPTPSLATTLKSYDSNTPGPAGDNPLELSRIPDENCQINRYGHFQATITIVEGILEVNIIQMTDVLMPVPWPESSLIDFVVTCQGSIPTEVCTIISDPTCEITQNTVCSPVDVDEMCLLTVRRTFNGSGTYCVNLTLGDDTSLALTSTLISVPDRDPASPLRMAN
- assay method text: SPR Carterra, Ab immobilized
property measured: koff (s⁻¹)
The figure you give is taken to be in s⁻¹; do not add the unit.

{"columns": ["binder", "property measured", "unit string", "readout value"],
 "data": [
  ["anti-GPNMB antibody GPN-03 (antibody, human IgG1, V domains shown, chimeric) VH: QVQLQQSGPELVKPGASVKLSCKASGYTFTNYYMYWVKQRPGQGLEWIGEINPRNGGTNFNEKFKSKATLTVDKSSSTAYMQLSSLTFEDSAVYYCTTGLAYWGQGTLVTVSA VL: DVVMTQTPLSLPVSLGDQASISCRSSQSLVHSDGNTYLHWYLQKPGQSPKLLIYKVSTRFSGVPDRFSGSGSGTDFTLKISRVEAEDLGVYFCSQSTHVPWTFGGGTKLEIK", "koff", "s⁻¹", 0.0019],
  ["anti-GPNMB antibody GPN-35 (antibody, human IgG1, V domains shown, chimeric) VH: EVQLVESGGGSVRPGRSLKLSCAAAGFTFSDYYMTWVRQAPTKGLEWVASINHDGGGTYYRDSVKGRFTISRDNARSSLYLQMDSLRSEDTGTYYCTTRAGWHWGQGVMVTVSS VL: DIQMTQSPASLSASLGETVSIECLASEDIYNYLTWYQQKPGKSPQVLIYSASGLQDGVPSRFSGSGSGRQYSLKINGLESEDAATYFCLQDSEYPLTFGSGTKLEIK", "koff", "s⁻¹", 0.0015],
  ["anti-GPNMB antibody GPN-25 (antibody, human IgG1, V domains shown, chimeric) VH: EVQLQQSGPELVKPGASVKISCKASGYSFTGYYMNWVKQSPEKSLEWIGEINPGSGITTYNQKFKAKATLTVDKSSSTAYLQLKSLTSEDSAVYYCARPASWFAYWGQGTLVTVSA VL: DIQMTQSPSSLSASLGERVSFICRASQEISGHLSWLQQKPDGTIKRLIYAASTLDSGVPKRFSGSRSGSDYSLTISSLESEDFADYYCLQYASYPYTFGGGTKLEIK", "koff", "s⁻¹", 0.00028]
]}

Recorded koff (binder anti-GPNMB antibody GPN-42 (antibody, human IgG1, V domains shown, chimeric) VH: DVKLVESGEDLVKPGGSLKLSCAASGFTFSSYAMSWVRQTPEKRLEWVAYISSGGDYIYYADTVKGRFTISRDNARNTLYLQMSSLKSEDTAMYYCTRDRYYDYDVRDYYTMDYWGQGTSVTVSS VL: DVMMTQTPLSLPVSLGDQASISCRSSQSLVHSNGNTYLHWFLQKPGQSPKLLIFRVSNRFSGVPDRFSGRGSGTDFTLKISRVEAEDLGVYFCSQTTHVPRTFGGGTTLEIK ): 8.3e-05
